# Tested on: Plasmodium falciparum
# assay: GSK_TCMDC: Inhibition of Plasmodium falciparum 3D7 in whole erythrocytes, using parasite LDH activity as an index of growth.
# Assay type: functional, organism-based
# recorded.conditions: Plasmodium falciparum, 3D7
value.type: XC50 (nM)
Return type: number; implicit unit nM.

Request: Which XC50 reading was recorded for the compound Cc1nc(N)nc(N)c1-c1ccc(Cl)c(Cl)c1 ?
Response: 79.6

Request: Now try CC(Cc1ccc(OCCN2CCN(c3cccc(Cl)c3)CC2)cc1)NCC(O)c1cccc(Cl)c1 (stereo unspecified) .
Response: 1210

Request: Now the compound COc1ccc(CC(=O)NC(CCCN2CCC(c3ccccc3)CC2)c2ccc(Cl)c(Cl)c2)cc1OC (stereo unspecified)
Response: 1050

Request: Now this one: COc1cc(C2CCCCC2)c(OC)cc1CC1c2cc(O)c(Cl)cc2CCN1C (stereo unspecified)
Response: 449

Request: Quick one: COc1ccc(CN(C)CCOc2ccc(NC(=O)c3cccc4c(=O)c5cc(SC)ccc5[nH]c34)cc2)cc1OC
Response: 877

Request: Proceed to CC1(C)N=C(N)N=C(N)N1O
Response: 192

Request: Also CC(C)CNCc1cccc(-c2ccc(CN(CCCN3CCN(C)CC3)C(=O)/C=C/c3ccccc3)cc2)c1 ?
Response: 857

Request: Try Cc1[nH]c(C)c(-c2ccc(-c3cccc(OC(F)(F)F)c3)nc2)c(=O)c1Cl next.
Response: 74.5

Request: Next: COc1ccc2[nH]ccc(=NN=Cc3ccncc3)c2c1
Response: 584

Request: Also CCCN(CC)CCOC(=O)c1ccccc1 ?
Response: 739

Request: // query: O=C(NC(Nc1ccc([N+](=O)[O-])cc1)C(Cl)(Cl)Cl)c1ccc(Cl)cc1 (stereo unspecified)
Response: 782

Request: Same thing, different compound: CCCCCN1CCCC1CNS(=O)(=O)c1ccc(C(=O)Nc2ccc(C(F)(F)F)cc2)cc1 (stereo unspecified)
Response: 838

Request: # repeat for Cc1cc(NCCc2ccc(O)cc2)nc(NCC(c2ccccc2)c2ccccc2)n1
Response: 320

Request: Also Cc1cc(N[C@@H](Cc2ccccc2)C(=O)NCCOc2ccccc2)nc(NCC2CCCCC2)n1 , if possible.
Response: 854

Request: // query: CCNc1cc(C(=O)N[C@@H](Cc2ccccc2)[C@H](O)CNC2CCCC2)cc(N2CCCC2=O)c1
Response: 83.4

Request: Proceed to COc1ccc(CCNc2nc(NCCc3cnc[nH]3)nc(NCc3cccc4ccccc34)n2)cc1OC
Response: 537

Request: Now this one: CCOC(=O)C(=CNc1ccc(Cc2cnc(N)nc2N)cc1CC)C(=O)OCC
Response: 1140

Request: Query CSc1ccc2ccccc2c1CNCCCCCCNCc1c(SC)ccc2ccccc12 next
Response: 797

Request: Same lookup for CN(CCC(O)c1ccc(Cl)c(Cl)c1)CC1CC1C(=O)c1ccccc1 (stereo unspecified) , please.
Response: 794

Request: What about Cc1nnc(-c2cccc(Nc3ccnc4cc(-c5nccs5)ccc34)c2)o1 ?
Response: 632

Request: Query COc1ccc2nccc(NC(=O)N3CCC(NCCOc4cc(F)cc(F)c4)CC3)c2n1 next
Response: 770

* * *

Would you kindly list XC50 for each of these compounds?
# System: Plasmodium falciparum
# assay: GSK_TCMDC: Inhibition of Plasmodium falciparum 3D7 in whole erythrocytes, using parasite LDH activity as an index of growth.
# Type: functional, organism-based
# recorded.conditions: Plasmodium falciparum, 3D7
# value in nM; strip the unit string

Request: Please provide the recorded XC50 for COc1cc(NCCCNC(=O)c2cn(Cc3ccccc3)c3ccccc23)nc2ccccc12 , tested on Plasmodium falciparum.
Response: 868

Request: Next up: Clc1cc(Br)ccc1-c1ccc(CNCC2CCNCC2)o1
Response: 1510

Request: What would you report for CN1CCC(c2nc(N)no2)C1 (centres undefined) ?
Response: 975

Request: Same question for CCOc1ccc(C(Cc2ccccc2)NC(=O)c2cccnc2)cc1OCC (centres undefined) please.
Response: 769

Request: Here is the next compound: CC(C)C[C@H](NC(=O)c1ccc(OCCN2CCOCC2)cc1)C(=O)N[C@H](/C=N/N1CCNC1=O)CCc1ccccc1
Response: 365

Request: Another compound to look at: CC1CCCN(Cc2cc(Cl)cc(Cl)c2O)C1 (centres undefined)
Response: 933

Request: For CCCCCCN1CCN(Cc2cccc(NC(=O)c3cc4ccccc4o3)c2)CC1 then?
Response: 909

Request: # repeat for CC(C)(C)OC(=O)c1c(NC(=O)/C=C/c2ccc(O)c(O)c2)sc2c1CCCC2
Response: 819

Request: Please do the same for O=C(Nc1ccsc1)Nc1cccc(-c2ccc(-c3nc4cc(C(F)(F)F)ccc4[nH]3)cc2)c1 as well.
Response: 351

Request: Ok, now Cc1cc(N[C@@H](Cc2ccccc2)C(=O)NCCOc2ccccc2)nc(NCCc2ccccc2)n1
Response: 1030

Request: Do the same for COc1ccc(NC(=O)c2ccc(NC(=O)c3ccc(Cl)cc3)cc2)cc1N1CCN(C)CC1 please
Response: 849

Request: Param item: CN1CCC(Oc2ccc(CN3CC[C@H](NC(=O)c4cc(F)cc(F)c4)C3)c3ccccc23)C1 (some centres undefined)
Response: 841

Request: Entry to check: COc1ccc2nccc(NC(=O)C3CCC(NCc4ccc5c(c4)NC(=O)CS5)CC3)c2c1 (centres undefined)
Response: 586

Request: Please answer likewise for c1ccc2c(NCCOCCNc3c4ccccc4nc4ccccc34)c3ccccc3nc2c1
Response: 878

Request: // same read-out, input: CN(C)CCCOc1ccc(CN2CC[C@H](NC(=O)c3ccc(Cl)c(Cl)c3)C2)c2ccccc12
Response: 879

Request: And then Cc1cc(N2CCCC2)nc(Nc2ccc(NC(=O)c3ccccc3)cc2)n1 , what is it?
Response: 977

Request: Likewise for COc1ccc(CNCc2ccccc2)cc1-c1ccc(S(=O)(=O)NCCN2CCCC2)c(F)c1 ?
Response: 1140

Request: Now the compound CN1CCN(c2ccnc3ccc(NC(=O)Nc4ccc(Br)cc4)cc23)CC1
Response: 92.5

Request: And CCOC(=O)C1=C(C)N=c2sc(=Cc3ccccc3O)c(=O)n2C1c1ccc(OC)c2ccccc12 (centres undefined) ?
Response: 1260

Request: Note, next up: Cc1cccc2nc(-c3ccc(-c4cccc(CNCCCNS(C)(=O)=O)c4)cc3)[nH]c12
Response: 1220

Request: Similarly, CC(C)Cc1nc(N2CCOCC2)c2nnn(Cc3ccccc3)c2n1 ?
Response: 508

Request: Would you kindly repeat that for Cc1cccn2c(=O)c3cc(C(=O)NC(C)c4ccccc4)c(=N)n(CCN4CCOCC4)c3nc12 (centres undefined) ?
Response: 823

Request: And for CC(C)C[C@H](NC(=O)c1cc2cc(OCCN3CCNCC3)ccc2o1)C(=O)NC1CC[C@@H](C)N(C(=O)Nc2ccc(Cl)cc2)CC1=O (some centres undefined) ?
Response: 382

Request: Next up: CC(C)NCc1ccc(-c2cccc(NC(=O)c3ccc(Cl)cc3)c2)cc1
Response: 289

Request: Now try Cc1cccc(-n2nc(C)c3c2NC(=O)CC3C(=O)c2ccc(Cl)s2)c1 (centres undefined) .
Response: 466

Request: Again, but for COc1ccc2nc3cc(Cl)ccc3c(NCCCCN)c2c1
Response: 732

Request: Param item: O=C(Nc1ccc(OC2CCN(Cc3ccco3)CC2)c(Cl)c1)c1ccc2ncccc2c1
Response: 949

Request: For Cc1cc2nc(-c3ccc(C(=O)NCc4ccc(Cl)c(Cl)c4)cc3)[nH]c2cc1C then?
Response: 828

Request: Check COc1cccc(NC(=O)Cn2c(C)c(C(=O)C(F)(F)F)c3ccccc32)c1 too.
Response: 827

Request: Next up: COc1cc(Nc2nccc(Nc3ccc4c(C)n[nH]c4c3)n2)cc2ccccc12
Response: 699

Request: CC(C)CNC(=S)N1CCCN(c2nc3ccc(Cl)cc3s2)CC1
Response: 960

Request: Now the compound CCCc1cc(Cc2cnc(N)nc2N)cc(CCC)c1OCCCCC(=O)O
Response: 195

Request: Okay, and COCC(=O)N(Cc1ccccc1-c1cccc(CNCc2ccc3c(c2)OCO3)c1)C1CCN(Cc2ccccc2)CC1 ?
Response: 842

Request: Another compound to look at: Cn1nccc1C(=O)NCCNCc1cccc(-c2ccc(-c3nc4cc(C(F)(F)F)ccc4[nH]3)s2)c1
Response: 151

Request: Then what about the compound O=C1OC(c2ccccc2)(c2ccccn2)CN1C1CCN(Cc2cccn2-c2ccc(Cl)cc2)CC1 (centres undefined) ?
Response: 475

Request: Same for O=C(Nc1ccccc1O)c1ccc(S(=O)(=O)c2ccc(Cl)cc2)cc1
Response: 1350

Request: Queued: COc1cc(CNCCCCCCNCc2cc(OC)c3ccccc3c2OC)c(OC)c2ccccc12
Response: 700

Request: What about this compound? O=C(NC1CCN(CCN2CCc3ccccc3CC2)CC1)c1ccc(-c2ccc(C(F)(F)F)cc2)cc1
Response: 935

Request: Moving on to COc1ccc2ncc(Cl)c(CCN3CCC(NCc4ccc5c(n4)NC(=O)CO5)CC3)c2c1
Response: 470
